assay: Chemical stability in aqueous solution (phosphate buffered saline, NMR); settings: pH 7.5, t1/2 (h) Diastereoisomer A, 10 mM phosphate buffer pH 7.5, 37° C., Diastereoisomer A = upfield shift in the 31P NMR
Assign half-life at 1 mM to each entry below.

Please report the recorded half-life at 1 mM for COC(=O)[C@H](C)NP1(=O)OCC(C)(C)[C@H](C(=O)NCCC(=O)OCCN2CCCC2)O1 (stereo partly shown) .
4.7 h

# half-life at 1 mM lookup, item COC(=O)CCNC(=O)[C@@H]1OP(=O)(OCCCN2CCOCC2)OCC1(C)C (stereo partly shown)
23.5 h

Quick check: half-life at 1 mM of COC(=O)CCNC(=O)[C@@H]1OP(=O)(N[C@@H](C)C(=O)OCc2cc(C)cc(C)c2)OCC1(C)C (stereo partly shown) ?
> 80 h

Fill blank: measured half-life at 1 mM of the compound COC(=O)CCNC(=O)[C@@H]1OP(=O)(OCOC(=O)c2ccccc2)OCC1(C)C (stereo partly shown) is ____.
87 h

---

experiment: Chemical stability in aqueous solution (phosphate buffered saline, NMR); conditions: pH 7.5, t1/2 (h) Diastereoisomer A, 10 mM phosphate buffer pH 7.5, 37° C., Diastereoisomer A = upfield shift in the 31P NMR
measurement-type: half-life at 1 mM (h)
Answer with a number only, understood to be in h.

Any idea what half-life at 1 mM was measured for COC(=O)CCNC(=O)[C@H](O)C(C)(C)COP1(=O)OCC(C)(C)[C@H](C(=O)NCCC(=O)OC)O1 (stereo partly shown) ?
80

If you can, please state the reported half-life at 1 mM value of COC(=O)CCNC(=O)[C@@H]1O[P@@](=O)(OCc2ccccc2)OCC1(C)C .
4.6

---

experiment: Permeability in porcine brain endothelial cell blood-brain barrier model; assay type: in vitro ADME; conditions: pig (endothelial cells), co-cultured with rat astrocytes, pH 7.4, PBECs/As blood-brain barrier model, luminal to basal; Diastereoisomer A; read-out: Papp Diastereoisomer A
measurement-type: Papp A→B at 60 min (×10⁻⁶ cm/s)
Response body: numeric value in ×10⁻⁶ cm/s, unit text excluded.

Query: Papp A→B at 60 min; subject: COC(=O)[C@H](C)NP1(=O)OCC(C)(C)[C@H](C(=O)NCCC(=O)OCc2ccncc2)O1 (stereo partly drawn) [compound 20]
4.79

Data request, read-out Papp A→B at 60 min, for COC(=O)CCNC(=O)[C@@H]1OP(=O)(N[C@@H](C)C(=O)OCCc2ccccc2)OCC1(C)C (stereo partly drawn) [Compound No. 2]
3.35

Could you tell me which Papp A→B at 60 min is on file for COC(=O)CCNC(=O)[C@@H]1OP(=O)(OCCSC(=O)C(C)(C)C)OCC1(C)C (stereo partly drawn) [Compound No. 2-133] ?
21.1

---

assay: Stability in human plasma; type: in vitro ADME; conditions: human, plasma, Diastereoisomer A (upfield shift in 31P NMR), 37° C., read-out: t1/2, Human Plasma, Diastereoisomer A (converted)
Would you mind telling me the reported half-life at 3 µM of each entry?

Which half-life at 3 µM is listed for COC(=O)CCNC(=O)[C@@H]1OP(=O)(OCOC(=O)c2ccc(CN3CCCC3)cc2)OCC1(C)C (stereo partly shown) ?
< 0.16 h

I have this molecule here, COC(=O)CCNC(=O)[C@@H]1OP(=O)(N[C@@H](C)C(=O)OCCc2scnc2C)OCC1(C)C (stereo partly shown) , and I need its recorded half-life at 3 µM.
> 1 h

Would you kindly share the measured half-life at 3 µM for Cc1cc(COC(=O)CCNC(=O)[C@@H]2OP(=O)(N[C@@H](C)C(=O)OCCc3ccccc3)OCC2(C)C)no1 (stereo partly shown) ?
> 1 h

Record request: half-life at 3 µM value, item C[C@H](NP1(=O)OCC(C)(C)[C@H](C(=O)NCCC(=O)OCC2CC2)O1)C(=O)OCCc1ccccc1 (stereo partly shown)
> 1 h
